# assayed-target: Heat shock factor protein 1 (Mus musculus, UniProt P38532)
# Sequence (P38532 whole entry): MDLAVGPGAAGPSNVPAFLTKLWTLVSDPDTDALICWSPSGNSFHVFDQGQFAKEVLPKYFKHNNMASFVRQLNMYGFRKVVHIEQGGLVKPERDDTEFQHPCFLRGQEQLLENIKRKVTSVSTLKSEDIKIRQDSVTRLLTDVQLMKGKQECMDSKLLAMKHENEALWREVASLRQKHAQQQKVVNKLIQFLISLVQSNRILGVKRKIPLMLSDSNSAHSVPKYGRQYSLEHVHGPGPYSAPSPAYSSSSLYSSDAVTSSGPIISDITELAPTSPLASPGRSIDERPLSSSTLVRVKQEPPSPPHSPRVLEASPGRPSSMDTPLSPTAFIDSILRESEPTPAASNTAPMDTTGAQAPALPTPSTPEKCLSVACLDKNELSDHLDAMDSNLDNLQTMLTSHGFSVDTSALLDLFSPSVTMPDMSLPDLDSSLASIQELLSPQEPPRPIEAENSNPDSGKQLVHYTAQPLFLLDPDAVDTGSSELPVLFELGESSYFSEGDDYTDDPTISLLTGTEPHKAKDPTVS
# method-notes: HSF1 potentiators in luciferase reporter cells, confirmation, cell-based, NIH3T3, luminescence, dose retest (AID 435004);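 also: stress induced by proteasome inhibitor MG132 added 30 min after compound; luciferase reporter driven by HSF1 response element in NIH3T3 cells; actives raise luminescence as potentiators of the MG132 stress response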
# Assay type: functional
Calls of active or inactive are those of the source.
Thanks in advance; please answer with one of these: class 1 = active, class 0 = inactive

- molecule: "CCOC(=O)C(C)(C)N(Cc1ccc(C)cc1)S(=O)(=O)c1ccc(Cl)c([N+](=O)[O-])c1"
  qualitative-label: "class 1"
- molecule: "O=C(NCCN1CCN(C(=O)c2ccc(Br)cc2)CC1)c1ccc(Br)cc1"
  qualitative-label: "class 0"
- molecule: "COc1ccc(C(=O)/C=C/c2ccc(OC)c(Cn3nnc4ccccc43)c2)cc1"
  qualitative-label: "class 1"
- molecule: "C/C(CCc1oc2c(Br)cc(Br)cc2c1-c1ccc(C)o1)=N\\O"
  qualitative-label: "class 0"
- molecule: "COc1ccc2c(c1)-c1c(sn(-c3ccccc3)c1=S)C(C)(C)N2"
  qualitative-label: "class 0"

For the next question, use this molecule.
Prompt: Which outcome was entered for the molecule COc1ccccc1NC(=O)N(Cc1ccco1)Cc1cc2ccc(C)c(C)c2nc1O in this test?
Completion: class 0

###

# method-notes: Luminescence Cell-Based Dose Response HTS to Identify Inhibitors of 5'UTR Stem-Loop Driven Prion Protein mRNA Translation in H4 Neuroglioblastoma Cells. [Related pubchem assays: 1827 (Project Summary), 1813 (Primary HTS)]
# Type: functional
Calls of active or inactive are those of the source.
Parameter: EC50. Scope: all listed entries.

Example entries and their recorded answers appear below.
- molecule: "COc1cc2c(cc1OC)CN(C(=O)CNS(=O)(=O)c1ccc(C)c(C)c1)CC2"
  EC50: "> 120 µM (not active)"
- molecule: "CCOc1ccc(S(=O)(=O)N2CCC(C(=O)N3CCOCC3)CC2)cc1C"
  EC50: "> 120 µM (not active)"
- molecule: "Cn1c(C[S+]([O-])Cc2c(Cl)cccc2Cl)nnc1SCc1ccc(Cl)cc1 (configuration not stated)"
  EC50: "> 120 µM (not active)"
- molecule: "Cc1ccc(C)c(OCCn2cc(/C=C(\\C#N)C(=O)NCc3ccco3)c3ccccc32)c1"
  EC50: "17.1 µM (active)"
- molecule: "COc1ccc(/C=N/NC(=O)c2ccncc2)cc1COc1ccc(NC(C)=O)cc1"
  EC50: "> 120 µM (not active)"
- molecule: "COc1ccccc1NC(=O)N(Cc1ccco1)Cc1cc2ccc(C)c(C)c2nc1O"
  EC50: "27.6 µM (active)"

Read the next record carefully.
Prompt: What does the record list as EC50 for CCOC(=O)c1nn(-c2ccc(C)c(C)c2)c(=O)c2c(N)scc12 ?
Completion: > 120 µM (not active)

###

# assayed-target: Alkaline phosphatase, tissue-nonspecific isozyme (Homo sapiens, UniProt P05186)
# Sequence (P05186 whole entry): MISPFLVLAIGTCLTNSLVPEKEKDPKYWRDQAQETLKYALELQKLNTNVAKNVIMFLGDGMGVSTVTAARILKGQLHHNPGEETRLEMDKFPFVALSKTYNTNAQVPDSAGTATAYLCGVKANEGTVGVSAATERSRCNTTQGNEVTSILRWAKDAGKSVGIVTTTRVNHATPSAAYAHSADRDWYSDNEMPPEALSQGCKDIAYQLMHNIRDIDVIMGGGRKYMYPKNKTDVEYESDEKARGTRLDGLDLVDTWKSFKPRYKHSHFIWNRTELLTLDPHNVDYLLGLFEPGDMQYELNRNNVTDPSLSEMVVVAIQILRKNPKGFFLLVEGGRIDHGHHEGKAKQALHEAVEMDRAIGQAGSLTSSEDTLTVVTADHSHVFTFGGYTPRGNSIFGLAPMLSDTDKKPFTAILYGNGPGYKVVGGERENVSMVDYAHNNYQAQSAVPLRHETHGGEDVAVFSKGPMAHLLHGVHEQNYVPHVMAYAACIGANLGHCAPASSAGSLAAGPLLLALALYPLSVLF
# method-notes: human TNAP enzyme inhibitors, SAR follow-up, biochemical, luminescent, dose response (AID 1056)
Activity calls are given as the source filed them.
Tick one outcome: 1 (yes) (active), 0 (no) (inactive)

- line-notation: "COc1ccccc1-c1nc(SCC(=O)c2ccc(O)c(O)c2)n[nH]1"
  qualitative-label: "1 (yes)"
- line-notation: "CCn1c(SCC(=O)c2ccc(OC)cc2)nnc1-c1ccccc1"
  qualitative-label: "0 (no)"
- line-notation: "CCOC(=O)c1ccc(-n2sc3ccccc3c2=O)cc1"
  qualitative-label: "0 (no)"

Prompt: GET /call?item= COC(=O)c1ccc(OC)c(S(=O)(=O)Nc2ccc3ccccc3c2)c1 returns the recorded outcome of this test.
Completion: 0 (no)

Prompt: Which result was noted for this compound in the test: COc1ccc(F)cc1S(=O)(=O)Nc1ccc2ccccc2c1
Completion: 0 (no)
